Reported viability, T/C by item:
System: KRAS-mutant PDC multicell tumor spheroid viability;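 note: viability read after seven days of drug exposure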
Assay Procedure: Anticancer human tumor 521955-158-R2-J5-PDC patient-derived pancreatic carcinoma cell line growth inhibition [KRAS2]
Experimental Conditions: second compound 1 µM; first compound 0.0316 µM; active compounds read low
Your answer should be a plain number; it is taken to be in %.

{"columns": ["Compound", "Target Or System", "viability, T/C / %"],
 "data": [
  ["CC1(C)CCC(CN2CCN(c3ccc(C(=O)NS(=O)(=O)c4ccc(NCC5CCOCC5)c([N+](=O)[O-])c4)c(Oc4cnc5[nH]ccc5c4)c3)CC2)=C(c2ccc(Cl)cc2)C1 + C=CC(=O)N1CCN(c2nc(=O)n(-c3c(C)ccnc3C(C)C)c3nc(-c4c(O)cccc4F)c(F)cc23)C(C)C1", "KRAS-mutant PDC multicell tumor spheroid viability", 114]
]}

// below: viability, T/C requested for another compound
QUERY: Could you tell me which viability, T/C is on file for CN(C)C/C=C/C(=O)Nc1cc2c(Nc3ccc(F)c(Cl)c3)ncnc2cc1O[C@H]1CCOC1 + C=CC(=O)N1CCN(c2nc(=O)n(-c3c(C)ccnc3C(C)C)c3nc(-c4c(O)cccc4F)c(F)cc23)C(C)C1 ?
RESULT: 85.2
